# measurement.description: Pharmacokinetic study, oral dosing at different dose levels
# Type: in vivo, wild type B6 mice
# setup.conditions: B6, mouse, plasma, po, 25 mg/kg, oral gavage, 25 mg/kg; read-out: AUC0-6
measured.attribute: AUC(0-t) (µg·h/mL)
Numbers only here, please. The scale is µg·h/mL.

Query: Identify measured AUC(0-t) corresponding to CCOc1ccc(-c2ccc(-c3cc(C(=O)O)c4cc(F)ccc4n3)cc2)cc1
Response: 101

====

# measurement.description: Pharmacokinetic study, single dose by IV, IP, PO
# Assay type: in vivo, wild type B6 mice
# setup.conditions: B6, mouse, plasma; PO, 10 mg/kg single dose
measured.attribute: AUC(0-t) (µg·h/mL)
Numbers only here, please. The scale is µg·h/mL.

Query: Identify measured AUC(0-t) corresponding to CCOc1ccc(-c2ccc(-c3cc(C(=O)O)c4cc(F)ccc4n3)cc2)cc1 [Cpd3]
Response: 425

====

# measurement.description: Pharmacokinetic study, oral dosing at different dose levels
# Type: in vivo, wild type B6 mice
# setup.conditions: B6, mouse, plasma; oral gavage, 10 mg/kg
measured.attribute: Cmax (ng/mL)
Numbers only here, please. The scale is ng/mL.

Query: Identify measured Cmax corresponding to CCOc1ccc(-c2ccc(-c3cc(C(=O)O)c4cc(F)ccc4n3)cc2)cc1
Response: 18600

====

# measurement.description: Pharmacokinetic study, oral dosing at different dose levels
# Type: in vivo, wild type B6 mice
# setup.conditions: B6, mouse, plasma; oral gavage, 50 mg/kg
measured.attribute: Tmax (min)
Numbers only here, please. The scale is min.

Query: Identify measured Tmax corresponding to CCOc1ccc(-c2ccc(-c3cc(C(=O)O)c4cc(F)ccc4n3)cc2)cc1
Response: 40.2

====

# System: AML cell lines (MOLM13, MV4-11, THP1, HL-60, and OCI-AML3)
# measurement.description: cells
# setup.conditions: read-out: IC50 range for growth arrest in AML cell lines
pIC50: −log10 of the molar value.
measured.attribute: pIC50

Query: Identify measured pIC50 corresponding to CCOc1ccc(-c2ccc(-c3cc(C(=O)O)c4cc(F)ccc4n3)cc2)cc1
Response: 5.96 to 6.55

====

# target: DHODH (Homo sapiens)
# Sequence (Q02127 whole entry): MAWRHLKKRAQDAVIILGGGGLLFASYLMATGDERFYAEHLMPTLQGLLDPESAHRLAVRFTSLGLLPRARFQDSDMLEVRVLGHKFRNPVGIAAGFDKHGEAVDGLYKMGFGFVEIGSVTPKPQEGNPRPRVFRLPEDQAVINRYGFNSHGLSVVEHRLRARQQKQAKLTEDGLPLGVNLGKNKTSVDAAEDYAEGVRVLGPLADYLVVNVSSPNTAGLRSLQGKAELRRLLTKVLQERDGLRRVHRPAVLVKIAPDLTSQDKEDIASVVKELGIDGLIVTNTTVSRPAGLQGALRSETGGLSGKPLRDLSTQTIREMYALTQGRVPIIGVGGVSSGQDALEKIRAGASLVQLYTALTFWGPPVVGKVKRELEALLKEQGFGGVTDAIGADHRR
Please go through the items and note down their IC50.
Numbers only here, please. The scale is nM.

Query: Identify measured IC50 corresponding to COc1ccc(-c2ccc(-c3cc(C(=O)O)c4cc(Cl)ccc4n3)cc2)cc1 [Cpd5]
Response: 99

Query: Identify measured IC50 corresponding to CCOc1ccc(-c2ccc(-c3cc(C(=O)O)c4cc(F)ccc4n3)cc2)cc1 [Cpd3]
Response: 43

====

# measurement.description: Pharmacokinetic study, single dose by IV, IP, PO
# Type: in vivo, wild type B6 mice
# setup.conditions: B6, mouse, plasma; IP, 10 mg/kg single dose
measured.attribute: Tmax (min)
Numbers only here, please. The scale is min.

Query: Identify measured Tmax corresponding to CCOc1ccc(-c2ccc(-c3cc(C(=O)O)c4cc(F)ccc4n3)cc2)cc1
Response: 18.6

====

# measurement.description: Pharmacokinetic study, oral dosing at different dose levels
# Type: in vivo, wild type B6 mice
# setup.conditions: B6, mouse, plasma, po, 10 mg/kg, oral gavage, 10 mg/kg; read-out: AUC0-24
measured.attribute: AUC(0-t)

Query: Identify measured AUC(0-t) corresponding to CCOc1ccc(-c2ccc(-c3cc(C(=O)O)c4cc(F)ccc4n3)cc2)cc1
Response: 66700 ng·h/mL
